- Test details: HRO761 blood PK in SW48 tumour-bearing mice
- Assay type: in vivo, mouse
- Conditions: female, mouse, whole blood, oral, 120 mg/kg, Free HRO761 blood concentration, Mean; 8 h
- Procedure: All animal studies were conducted in accordance with ethics and procedures covered by permit BS-2275 and BS-1975 issued by the Kantonales Veterinäramt Basel-Stadt and in strict adherence to guidelines of the Eidgenössisches Tierschutzgesetz and the Eidgenössische Tierschutzverordnung, Switzerland. All animal studies were approved by the internal ethics committee. […] PK parameters were determined by non-compartmental analysis. […]
Test readout: concentration at 8 h (nM)
Give the number; nM is assumed, so skip it.

Please give the measured concentration at 8 h for this compound: CCc1c(N2CCN(C(=O)c3ncnc(C)c3O)CC2)c(=O)n2nc(C3=CCOCC3)nc2n1CC(=O)Nc1ccc(C(F)(F)F)cc1Cl
620

====

- System tested: WRN D1D2 WT (WRN 517–945) (Homo sapiens, UniProt Q14191)
- Construct: the minimal D1–D2 helicase core (WRN 517–945)
- Sequence (Q14191 517-945): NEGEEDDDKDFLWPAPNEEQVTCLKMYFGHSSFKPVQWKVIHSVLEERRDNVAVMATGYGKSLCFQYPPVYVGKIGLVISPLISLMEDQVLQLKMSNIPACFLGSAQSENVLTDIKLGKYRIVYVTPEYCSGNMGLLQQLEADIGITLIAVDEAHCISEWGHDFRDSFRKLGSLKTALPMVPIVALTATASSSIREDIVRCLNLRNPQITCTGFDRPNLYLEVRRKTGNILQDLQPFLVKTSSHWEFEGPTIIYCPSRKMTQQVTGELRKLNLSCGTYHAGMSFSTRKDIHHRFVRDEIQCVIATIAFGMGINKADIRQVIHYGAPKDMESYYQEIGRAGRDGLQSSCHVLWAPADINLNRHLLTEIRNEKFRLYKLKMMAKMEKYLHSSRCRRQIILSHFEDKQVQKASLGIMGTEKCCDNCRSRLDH
- Test details: ATPase assay
- Conditions: read-out: Biochemical IC50 ATPase WRN D1D2 WT
- Experimental: We used an ADP-Glo assay kit (Promega) to monitor ATP hydrolysis. […] Then, 10 μl of ATP detection reagent was added and incubated for an additional hour before reading. The luminescence output was recorded using the Pherastar reader, with a 5 min delay before reading. […] The compound potency (IC50 value) was determined using custom software (Novartis Helios software application) with a four-parameter sigmoid Hill-curve model. […]
Test readout: pIC50
Answer as the number alone; pIC50 is minus log10 of concentration in mol/L.

Please give the measured pIC50 for this compound: CC(=O)N1CCN(c2c(C)n(CC(=O)Nc3ccc(Cl)cc3)c3nc(N4CCN(C(=O)OC(C)(C)C)CC4)nn3c2=O)CC1 [compound 5]
6.60

====

- Test details: Mouse unbound fraction
- Type: in vitro ADME
- Conditions: blood
Test readout: fraction unbound
Lab note: record the figure alone, no unit after it.

Please give the measured fraction unbound for this molecule: CCc1c(N2CCN(C(=O)c3ncnc(C)c3O)CC2)c(=O)n2nc(C3=CCOCC3)nc2n1CC(=O)Nc1ccc(C(F)(F)F)cc1Cl
0.193

====

- Test details: Compound 3 blood PK in SW48 tumour-bearing mice
- Format: in vivo, mouse
- Conditions: female, mouse, whole blood, oral, 15 mg/kg, 15mg/kg BID; 1 h; single mouse; read-out: Total blood concentration
Test readout: concentration at 1 h (µM)
Give the number; µM is assumed, so skip it.

Please give the measured concentration at 1 h for this compound: CCc1c(N2CCN(C(=O)c3ncccc3O)CC2)c(=O)n2nc(C3=CCOCC3)nc2n1CC(=O)Nc1ccc(C(F)(F)F)cc1C
0.84
